Each record here notes measured koff.
- TEST TARGET: SARS-CoV-2 spike S-RBD protein (Severe acute respiratory syndrome coronavirus 2)
- Construct: the S-RBD-mFc protein and ACE2-His protein were immobilized on a CM5 sensor chip; purchased Sino Biological (Beijing, China) 40592-V05H
- EXPERIMENTAL PROTOCOL: biochemical
- Format: binding
# do not omit the unit; it follows the number

Nc1nc(Nc2ccc3c(c2)CC[C@@H](N2CCCC2)CC3)nn1-c1cc2c(nn1)-c1ccccc1CCC2    0.329 s⁻¹

Supply koff value. Item: "COc1cc2c(Oc3ccc4[nH]c(C)cc4c3F)ncnc2cc1OCCCN1CCCC1"
0.00964 s⁻¹

Supply koff value. Item: "C=CC(=O)Nc1cc(Nc2nccc(-c3c[nH]c4ccccc34)n2)c(OC)cc1N(C)CCN(C)C"
0.0215 s⁻¹

Supply koff value. Item: "C[C@@]1(C(=O)O)CC[C@]2(C)CC[C@]3(C)C4=CC(=O)c5c(cc(O)c(O)c5C=O)[C@]4(C)CC[C@@]3(C)[C@@H]2C1"
0.00244 s⁻¹

----------
- TEST TARGET: S-RBD-His protein (Severe acute respiratory syndrome coronavirus 2)
PROPERTY NAME: Kd (nM)
Entry rule: numbers only, all in nM.

Supply Kd value. Item: "C[C@@]1(C(=O)O)CC[C@]2(C)CC[C@]3(C)C4=CC(=O)c5c(cc(O)c(O)c5C=O)[C@]4(C)CC[C@@]3(C)[C@@H]2C1"
2090

----------
Each record here notes measured pKd.
- TEST TARGET: SARS-CoV-2 spike S-RBD protein (Severe acute respiratory syndrome coronavirus 2)
- Construct: the S-RBD-mFc protein and ACE2-His protein were immobilized on a CM5 sensor chip
- EXPERIMENTAL PROTOCOL: biochemical
Lab note: report pKd as minus log10 of the concentration in molar units, number only.

COc1cc2c(Oc3ccc4[nH]c(C)cc4c3F)ncnc2cc1OCCCN1CCCC1    5.34
Nc1nc(Nc2ccc3c(c2)CC[C@@H](N2CCCC2)CC3)nn1-c1cc2c(nn1)-c1ccccc1CCC2    4.19
C=CC(=O)Nc1cc(Nc2nccc(-c3c[nH]c4ccccc34)n2)c(OC)cc1N(C)CCN(C)C    5.04

Note: attention shifts to another entry.
Report its pKd with SARS-CoV-2 spike S-RBD protein (Severe acute respiratory syndrome coronavirus 2) as the test system: "C[C@@]1(C(=O)O)CC[C@]2(C)CC[C@]3(C)C4=CC(=O)c5c(cc(O)c(O)c5C=O)[C@]4(C)CC[C@@]3(C)[C@@H]2C1"
5.98

----------
Each record here notes measured Kd.
- TEST TARGET: human ACE2 protein (Homo sapiens, UniProt Q9BYF1)
- Sequence (Q9BYF1 18-740 limits assumed): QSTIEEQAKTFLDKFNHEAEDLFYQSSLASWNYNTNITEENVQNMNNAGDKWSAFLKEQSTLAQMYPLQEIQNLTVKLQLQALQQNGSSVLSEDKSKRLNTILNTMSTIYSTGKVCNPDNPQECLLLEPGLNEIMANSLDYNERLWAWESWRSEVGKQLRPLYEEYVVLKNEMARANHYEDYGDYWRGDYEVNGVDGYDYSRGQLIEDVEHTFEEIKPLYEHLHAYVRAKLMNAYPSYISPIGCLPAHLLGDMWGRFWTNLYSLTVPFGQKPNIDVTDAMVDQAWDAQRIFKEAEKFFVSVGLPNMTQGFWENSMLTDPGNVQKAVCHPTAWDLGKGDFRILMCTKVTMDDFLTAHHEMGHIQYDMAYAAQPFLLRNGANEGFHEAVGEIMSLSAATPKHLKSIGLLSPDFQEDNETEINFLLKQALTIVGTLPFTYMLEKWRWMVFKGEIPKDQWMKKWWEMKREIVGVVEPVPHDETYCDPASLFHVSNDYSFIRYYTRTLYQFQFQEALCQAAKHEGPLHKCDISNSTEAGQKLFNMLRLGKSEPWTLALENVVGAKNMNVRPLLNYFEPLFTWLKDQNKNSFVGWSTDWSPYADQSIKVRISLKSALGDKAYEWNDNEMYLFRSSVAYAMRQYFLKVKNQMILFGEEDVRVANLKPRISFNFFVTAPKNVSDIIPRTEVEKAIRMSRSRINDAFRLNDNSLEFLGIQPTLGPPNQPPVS
- EXPERIMENTAL PROTOCOL: SPR affinity screen, compounds over immobilized ACE2-His (CM5 chip)
- Format: binding
# do not omit the unit; it follows the number

Solved cases below.
C[C@@]1(C(=O)O)CC[C@]2(C)CC[C@]3(C)C4=CC(=O)c5c(cc(O)c(O)c5C=O)[C@]4(C)CC[C@@]3(C)[C@@H]2C1    1.74 µM
Nc1nc(Nc2ccc3c(c2)CC[C@@H](N2CCCC2)CC3)nn1-c1cc2c(nn1)-c1ccccc1CCC2    243 µM

Note: attention shifts to another entry.
Supply Kd value. Item: "COc1cc2c(Oc3ccc4[nH]c(C)cc4c3F)ncnc2cc1OCCCN1CCCC1"
3.43 µM

----------
- TEST TARGET: human ACE2 protein (Homo sapiens)
- EXPERIMENTAL PROTOCOL: SPR affinity screen, compounds over immobilized ACE2-His (CM5 chip)
- Type: binding
- PARTICULARS: target ACE2; SPR, 1:1 binding model for kinetics
PROPERTY NAME: pKd
Lab note: report pKd as minus log10 of the concentration in molar units, number only.

Supply pKd value. Item: CC(C)c1cc(C(C)C)c(CC(=O)NS(=O)(=O)Oc2ccccc2)c(C(C)C)c1 [02C19]
4.65

----------
Each record here notes measured kon.
- TEST TARGET: SARS-CoV-2 spike S-RBD protein (Severe acute respiratory syndrome coronavirus 2, UniProt P0DTC2)
- Construct: the S-RBD-mFc protein and ACE2-His protein were immobilized on a CM5 sensor chip; purchased Sino Biological (Beijing, China) 40592-V05H
- EXPERIMENTAL PROTOCOL: biochemical
- Assay type: binding
Entry rule: numbers only, all in M⁻¹ s⁻¹.

Supply kon value. Item: C[C@@]1(C(=O)O)CC[C@]2(C)CC[C@]3(C)C4=CC(=O)c5c(cc(O)c(O)c5C=O)[C@]4(C)CC[C@@]3(C)[C@@H]2C1 [02B05, demethylzeylasteral]
2350

Supply kon value. Item: C=CC(=O)Nc1cc(Nc2nccc(-c3c[nH]c4ccccc34)n2)c(OC)cc1N(C)CCN(C)C [02C15]
2360

Supply kon value. Item: COc1cc2c(Oc3ccc4[nH]c(C)cc4c3F)ncnc2cc1OCCCN1CCCC1 [03D12]
2100

Supply kon value. Item: Nc1nc(Nc2ccc3c(c2)CC[C@@H](N2CCCC2)CC3)nn1-c1cc2c(nn1)-c1ccccc1CCC2 [02J06]
5120

----------
- EXPERIMENTAL PROTOCOL: Cytotoxicity in 293T-hACE2 cells (PrestoBlue / CCK)
- PARTICULARS: human, 293T-hACE2 cells
PROPERTY NAME: CC50 at 24 h (µM)
Entry rule: numbers only, all in µM.

Supply CC50 at 24 h value. Item: C[C@@]1(C(=O)O)CC[C@]2(C)CC[C@]3(C)C4=CC(=O)c5c(cc(O)c(O)c5C=O)[C@]4(C)CC[C@@]3(C)[C@@H]2C1 [02B05, demethylzeylasteral]
7.67
